Values from PubChem BioAssay (NCI)

tested on: MALME-3M melanoma; experiment: NCI-60 one-dose screen, 48 h; conditions: 10 µM unless noted
Compounds without any hit were thinned out: in the full panel of roughly 83,000, 20% have a hit. Activity calls are given as the source filed them. The calls were made as follows: active = growth percent below 10; inactive = the rest.
Pick one: t (active), f (inactive)

[[record]]
compound = "O=c1[nH]c(=S)[nH]c(O)c1/C=C1\\C=Nc2ccccc21"
testsystem = "MALME-3M melanoma"
labelclass = "f"

[[record]]
compound = "NC(CSC(c1ccccc1)(c1ccccc1)c1ccccc1)C(=O)NCC(=O)O (stereo unspecified)"
testsystem = "MALME-3M melanoma"
labelclass = "f"

[[record]]
compound = "CC(O)CN(CC(C)O)N(CC(C)O)CC(C)O (stereo unspecified)"
testsystem = "MALME-3M melanoma"
labelclass = "f"

[[record]]
compound = "CC(=O)N1N=C(c2ccc(Cl)cc2)CC1c1cn(-c2ccccc2)nc1-c1ccc([N+](=O)[O-])cc1 (stereo unspecified)"
testsystem = "MALME-3M melanoma"
labelclass = "f"

[[record]]
compound = "Brc1ccc(-c2nc3ccccc3s2)cc1"
testsystem = "MALME-3M melanoma"
labelclass = "f"


-- ask Tell me the recorded outcome of this test for COC(=O)c1ccc2[nH]c(O)c(C(=Nc3ccc(N(C)C(=O)CN4CCN(C)CC4)cc3)c3cccc(OC)c3)c2c1 .
-- reply t

-- ask Tell me the recorded outcome of this test for O=C(Nc1ccccc1)Nc1ccc(Nc2ncnc3sc4c(c23)CCCC4)cc1 .
-- reply f

-- ask Tell me the recorded outcome of this test for Cc1ccc(C(=O)Nc2ccc(CN3CCN(C)CC3)c(C(F)(F)F)c2)cc1C#Cc1cnc(N)c2ccc(F)cc12 .
-- reply t

-- ask Tell me the recorded outcome of this test for COc1ccc(-c2nc(N)n(C(=S)Nc3ccccc3)n2)cc1 .
-- reply f

-- ask Tell me the recorded outcome of this test for c1ccc(Nc2ncc3c(n2)-c2cccn2CC3)cc1 .
-- reply f

-- ask Tell me the recorded outcome of this test for CC1Cc2cc(F)ccc2-n2cccc21 (stereo unspecified) .
-- reply f

----------
tested on: SF-539 CNS; assay: NCI-60 one-dose screen, 48 h; settings: 10 µM unless noted
The panel holds about 83,000 compounds, 20% with a hit somewhere; the sample as a whole holds those more often. Activity calls are given as the source filed them. How the source made its calls: active means growth percent below 10; inactive means the rest.
Pick one: True = active, False = inactive

Worked examples, 3 molecules total:
[[record]]
molecule = "[2H]c1nc(=Nc2cc(NC(=O)C=C)c(N(C)CCN(C)C)cc2OC)[nH]c(-c2cn(C([2H])([2H])[2H])c3ccccc23)c1[2H]"
labelclass = "False"

[[record]]
molecule = "COC(=O)CC(=O)C(=O)OC"
labelclass = "False"

[[record]]
molecule = "CCCCn1c(Cc2ccc(OC)cc2)nc2cc(OC)c(OC)cc2c1=O"
labelclass = "False"


Turning now to a further molecule:
-- ask Tell me the recorded outcome of this test for CC1(C)NC(=S)NC1=O .
-- reply False

----------
test system: RPMI-8226 leukemia; assay: NCI-60 one-dose screen, 48 h (100 = growth as untreated, 0 = no growth, -100 = all killed); settings: 10 µM unless noted
This is part of a sample that, as a whole, favours compounds with a hit. Of some 83,000 tested, about 20% had one in any assay.
I'd be grateful if you could share measured growth for these entries.
Numbers only, in %.

Record excerpt, results attached:
[[record]]
compound = "O=C(c1ccccc1)c1ccccc1-c1ccccc1"
valueobserved = 13.6

[[record]]
compound = "CC(=O)C(CO)C(=O)Nc1ccccc1 (stereo unspecified)"
valueobserved = 103

[[record]]
compound = "COc1cc(NC(C)CCCN)c2nc(C)ccc2c1OC (stereo unspecified)"
valueobserved = 69.1

[[record]]
compound = "O=C1C(Br)=CC2C1C1C3CCC3C2(Br)C12OCCO2 (stereo unspecified)"
valueobserved = 7.82

[[record]]
compound = "CCCCCCCCCCCC(=O)OC(C)C(=O)Nc1ccccc1 (stereo unspecified)"
valueobserved = 99.8

[[record]]
compound = "COc1cc(-c2nn(-c3ccc(NC(=O)Nc4ccc(Cl)c(Cl)c4)cc3)cc2-c2ccncc2)ccc1Cl"
valueobserved = -15.3

[[record]]
compound = "CC([C@H]1CCC2C3CCC4C[C@@H](N)CC[C@]4(C)C3CC[C@@]21C)N(C)C (stereo partly specified)"
valueobserved = 58.7

[[record]]
compound = "CCCC(=O)NNc1[nH]c(-c2cc(OC)c(OC)c(OC)c2)cc1C(=O)OCC"
valueobserved = 101

[[record]]
compound = "C[C@H]1C[C@@H](n2cnc3c(N)nccc32)[C@H](O)[C@@H]1O"
valueobserved = 117

[[record]]
compound = "COc1ccc2c(N)ncc(C#Cc3cc(C(=O)Nc4ccc(CN5CCN(C)CC5)c(C(F)(F)F)c4)cnc3C)c2c1"
valueobserved = -45.1


Below is a list of compounds. For each, state its recorded growth.
1. O=C(O)COc1ccc([N+](=O)[O-])cc1Cl
2. CCOC(=O)C1=C(c2ccccc2)NC(=O)NC1CN1C(=O)c2ccccc2C1=O (stereo unspecified)
3. Clc1ccc(N/N=C/c2ccccn2)nc1
4. O=C(CCl)NC1c2ccccc2Oc2ccccc21
5. c1ccc(Nc2ncc3c(n2)-c2cccn2CC3)cc1
6. Clc1ccc(N/N=C(/c2ccccc2)c2ccccn2)nc1
7. C=CCSc1nnc(COc2ccc3c(C)c(Cc4ccccc4)c(=O)oc3c2C)o1

-- reply
[94.2, 97.9, 26.3, 50.1, 97, 29.3, 99.9]

Below is a list of compounds. For each, state its recorded growth.
1. c1ccc(-c2cn3ccnc3c(-c3ccc4ncn(C5CCCCC5)c4c3)n2)cc1
2. NCCCOc1cc2ccccc2cc1C(=O)Nc1ccc(Cl)cc1OC(=O)c1cc2ccccc2cc1OCCCN

-- reply
14.3
-46.6

Below is a list of compounds. For each, state its recorded growth.
1. COc1ccc(/C=C2\CCCC3=C2N=C2SC=NN2C3c2ccc(OC)c(OC)c2)cc1OC (stereo unspecified)
2. CC1(C)N=C(N)N=C(N)N1c1cccc(CCCCOc2ccccc2)c1
3. O=C(O)/C(Br)=C/c1c[nH]c2ccc(Br)cc12
4. Cc1nc(NC(=O)NC2CCCCC2)sc1C(=O)NN
5. COC(=O)c1cc(Nc2ccc(O)c3c2C(=O)c2c([N+](=O)[O-])ccc(O)c2C3=O)cc(C(=O)OC)c1
6. CCCCCCC(=O)C(C)C

-- reply
-14.8
8.3
114
112
17.9
105

Below is a list of compounds. For each, state its recorded growth.
1. Cc1ccc(C(=O)C(Br)C(Br)c2ccccc2)cc1 (stereo unspecified)
2. CCOC(=O)CCCCCCCCC(=O)OCC
3. CCCCCCCCCCCCCCCC[n+]1cccc(C#N)c1
4. CCC(C)(CC)c1ccc(O)c(C)c1
5. CCS(=O)(=O)N[C@@H]1O[C@H](COC(C)=O)C(OC(C)=O)[C@H](OC(C)=O)C1OC(C)=O (stereo partly specified)
6. COc1cc2c(cc1OC)C(Cc1cc(OC)c(OC)cc1[N+](=O)[O-])=NCC2

-- reply
48.2
108
45.1
98.8
105
78.1

Below is a list of compounds. For each, state its recorded growth.
1. Cc1nnc(-c2cc3c(ccc4ccccc43)oc2=O)c2cn(-c3ccc(Cl)cc3)nc12
2. COc1ccc(-c2nc(SCC(C)C)nc(Nc3ccc([N+](=O)[O-])cc3)c2C#N)cc1
3. CCCCCCCCCC[N+](C)(C)N
4. COC(=O)c1cc(=O)nc(N/N=C/c2ccccc2O)s1
5. COc1cc2c(/C=C3\C(=O)Nc4ccc(Br)cc43)c(Cl)n(C)c2cc1C
6. NNC(=O)CNc1ccc2ccccc2c1

-- reply
75
93.9
78.1
87.9
0.149
113

Below is a list of compounds. For each, state its recorded growth.
1. COc1cccc(NC(=O)NCCNc2nccc(-c3c(-c4ccc(F)cc4)nc4sccn34)n2)c1
2. C/C=C(/C)C(=O)OC1C=C(CO)C(=O)C(OC(=O)C2(C)OC2C)C1C(C)C (stereo unspecified)
3. CSc1nc(N)n2nccc2n1
4. CC(=O)Nc1ccc(C(=O)/C=C/c2ccc(N(C)C)cc2)cc1
5. COc1ccc(Cn2cc3c(c2)-c2oncc2CC3)cc1OC
6. COc1ccc(-c2cc(C#N)c(NNC(C)=O)[nH]2)cc1
7. CCOC(=O)CSSCC(=O)OCC

-- reply
1. 82.2
2. -37.4
3. 106
4. 102
5. 35.1
6. 123
7. 98.6

Below is a list of compounds. For each, state its recorded growth.
1. CCOC(=O)/C(C#N)=C(/CC)OCC
2. CC(=O)Oc1cc2ccccc2cc1C(C)C

-- reply
1. 103
2. 109

----------
system: M14 melanoma; assay: NCI-60 one-dose screen, 48 h; details: 10 µM unless noted
Compounds without any hit were thinned out: in the full panel of roughly 83,000, 20% have a hit. Calls of active or inactive are those of the source. Rule for the calls: active = growth percent below 10; inactive = the rest.
Pick one: active, inactive

-- ask Tell me the recorded outcome of this test for NC(N)=Nc1ccc(/C=C2\C=Cc3ccccc32)cc1 .
-- reply inactive

-- ask Tell me the recorded outcome of this test for CCCCCCC(C)N(CC(C)(C)O)C(=O)c1ccc([N+](=O)[O-])cc1 (centres undefined) .
-- reply inactive

-- ask Tell me the recorded outcome of this test for Nc1nc2c(c3cnccc13)C(c1cccc(Cl)c1)Cc1cnccc1-2 (centres undefined) .
-- reply active

-- ask Tell me the recorded outcome of this test for CCCCCCN(CCCCCC)CCC(=O)Nc1ccc(S(=O)(=O)c2ccc(NC(=O)CCN(CCCCCC)CCCCCC)cc2)cc1 .
-- reply inactive

-- ask Tell me the recorded outcome of this test for Cc1ccc(OCCn2ccc(=O)n(CCOc3ccc(Cl)cc3C(=O)c3cc(C)cc(C)c3)c2=O)cc1 .
-- reply inactive

-- ask Tell me the recorded outcome of this test for Cc1ccc(C(=O)Nc2ccc(CN3CCN(C)CC3)c(C(F)(F)F)c2)cc1C#Cc1cnc(N)c2ccc(F)cc12 .
-- reply active

-- ask Tell me the recorded outcome of this test for C/C=C(/C)C(=O)OC1C=C(CO)C(=O)C(OC(=O)/C(C)=C\C)C1C(C)C (centres undefined) .
-- reply active

-- ask Tell me the recorded outcome of this test for O=c1[nH]c2cc(O)ccc2n2cc3c(F)cccc3c12 .
-- reply inactive

-- ask Tell me the recorded outcome of this test for Oc1ccccc1/C=N/N=C/c1c(O)ccc2ccccc12 .
-- reply inactive

-- ask Tell me the recorded outcome of this test for CCCCn1c(Cc2ccc(OC)cc2)nc2cc(OC)c(OC)cc2c1=O .
-- reply inactive

-- ask Tell me the recorded outcome of this test for O=P(OCCCl)(OCCCl)C(O)c1ccccc1Cl (centres undefined) .
-- reply inactive

-- ask Tell me the recorded outcome of this test for N=c1c2c(=O)n3c(nc2nc2sc4ccc(Cl)cc4n12)-c1ccccc1Sc1ccccc1-3 .
-- reply inactive

-- ask Tell me the recorded outcome of this test for COC(=O)c1ccc2[nH]c(O)c(C(=Nc3ccc(N(C)C(=O)CN4CCN(C)CC4)cc3)c3ccc(C)cc3)c2c1 .
-- reply active

-- ask Tell me the recorded outcome of this test for CC(=O)Nc1nc(C)c(C(=O)N/N=C/c2cccs2)s1 .
-- reply inactive
